B1: TET3 peptide 1705-1720 (methylcytosine dioxygenase TET3), 16-mer library wild type / USP8 rhodanese domain (ubiquitin carboxyl-terminal hydrolase 8, residues 174-317) (parent)
chain 1: GLALWEAKMKQLAERA
chain 2: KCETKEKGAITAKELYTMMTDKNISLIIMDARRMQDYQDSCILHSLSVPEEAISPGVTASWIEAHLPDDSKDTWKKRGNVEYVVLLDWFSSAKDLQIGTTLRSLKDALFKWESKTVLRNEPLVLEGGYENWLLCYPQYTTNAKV

variants of: B1; experiment: peptide-phage display deep mutational scan (M13, 16-mer library, displayed with a C-terminal GGGSG linker encoded by the 3' flank) selected against the GST-tagged USP8 rhodanese domain, four rounds; NGS counts summed over selection …; conditions: with USP8 rhodanese domain (ubiquitin carboxyl-terminal hydrolase 8, residues 174-317), 10 µg GST-bait on MaxiSorp, pre-cleared on GST, 2 h at 4 °C, five washes with 0.05% Tween 20 in PBS, not graded, scale: average over two replicas of the peptide's fractional NGS count
MEASUREMENT LABEL: screen value

// solved cases for screen value follow
* chain 1 GLALWEAKMKQLNERA [chain 1 A13N] | 0.000273
* chain 1 GLARWEAKMKQLAERA [chain 1 L4R] | 0.000374

(P) chain 1 GLILWEAKMKQLAERA [chain 1 A3I]
(Q) chain 1 GLALWEPKMKQLAERA [chain 1 A7P]
(R) chain 1 GLALWEAKMKALAERA [chain 1 Q11A]
(S) chain 1 GLALWEAKMKQLAEGA [chain 1 R15G]
(T) chain 1 GLALMEAKMKQLAERA [chain 1 W5M]
Order the records by screen value, with each subsequent value no larger than the one before. Form field (ranking): labels in requested order.
S, T, Q, R, P
(S: 0.000816, T: 0.00029, Q: 5.46e-05, R: 3.6e-05, P: 4.33e-06)

(I) chain 1 GAALWEAKMKQLAERA [chain 1 L2A]
(II) chain 1 GLALWEAKMKGLAERA [chain 1 Q11G]
(III) chain 1 GLALWEEKMKQLAERA [chain 1 A7E]
(IV) chain 1 GLELWEAKMKQLAERA [chain 1 A3E]
Order the records by screen value, with each subsequent value no larger than the one before. Form field (ranking): labels in requested order.
IV, II, III, I
(IV: 0.064, II: 0.000837, III: 8.66e-06, I: 4.33e-06)

(P) chain 1 GLALWEAKMKQSAERA [chain 1 L12S]
(Q) chain 1 GLALWEGKMKQLAERA [chain 1 A7G]
Endpoint returns the identifier whose screen value is numerically larger, either P or Q . Output the label that corresponds to your choice.
Q
(Q: 7.04e-05, P: 4.33e-06)

(A) chain 1 GLALWEAKMKQKAERA [chain 1 L12K]
(B) chain 1 GLALWESKMKQLAERA [chain 1 A7S]
(C) chain 1 GLALWEAKMKQLAERP [chain 1 A16P]
(D) chain 1 GLALWEAKMKQLAERM [chain 1 A16M]
Order the records by screen value, with each subsequent value no larger than the one before. Form field (ranking): labels in requested order.
C, D, B, A
